Origin of the recorded values: paper PMC9850473

ASSAY_OVERVIEW: In vitro cytotoxicity, fluorescent Resazurin assay, HL60
MEASUREMENT_CONTEXT: human, HL60 (HL-60) promyelocytic leukemia cells, In vitro cytotoxicity [IC50, μM] HL60, HL60 cells, 72 h incubation, 1–30 μM, mean ± standard deviation
Answer each item with its documented IC50 at 72 h.
One number for each entry, in µM.

See these solved cases before continuing.
>>> observed("CC(C)C[C@H](NC(=O)[C@H](Cc1ccccc1)NC(=O)c1cnccn1)B(O)O [bortezomib, reference compound]")
0.00742
>>> observed("Cc1ccc2c(c1)C(=O)/C(=C/NCCCO)C(P(=O)(c1ccccc1)c1ccccc1)O2 (stereo not shown) [2f]")
27.4

Now turn to the next compound.
Q) Tell me measured IC50 at 72 h for Cc1ccc2c(c1)C(=O)/C(=C/NC(c1ccccc1)c1ccccc1)C(P(=O)(c1ccccc1)c1ccccc1)O2 (stereo not shown) [2e] please.
A) 9.91

====

Answer each item with its documented melting point.

See these solved cases before continuing.
>>> observed("COc1ccc(NC(c2coc3ccc(C)cc3c2=O)P(=O)(c2ccccc2)c2ccccc2)cc1 (stereo not shown) [1c]")
"224 to 225 °C"
>>> observed("Cc1cc(C)cc(P(=O)(c2cc(C)cc(C)c2)C2Oc3ccc(C)cc3C(=O)/C2=C/NC2CCCCC2)c1 (stereo not shown) [8c]")
"155 to 156 °C"

Batch of 2 molecules: report melting point for each.
1. Cc1ccc2c(c1)C(=O)/C(=C/NCCCO)C(P(=O)(c1ccccc1)c1ccccc1)O2 (stereo not shown) [2f]
2. CCCCN/C=C1/C(=O)c2cc(C)ccc2OC1P(=O)(c1ccc2ccccc2c1)c1ccc2ccccc2c1 (stereo not shown) [9a]

A)
176 to 177 °C
192 to 193 °C

====

Answer each item with its documented IC50 at 72 h.
ASSAY_OVERVIEW: In vitro cytotoxicity, fluorescent Resazurin assay, A549
Format: cell-based
MEASUREMENT_CONTEXT: human, A549 lung adenocarcinoma cells, 72 h incubation, 1–30 μM, mean ± standard deviation

>>> observed("CCCCN/C=C1/C(=O)c2cc(C)ccc2OC1P(=O)(c1cc(C)cc(C)c1)c1cc(C)cc(C)c1 (stereo not drawn) [8a]")
"> 30 µM"

Batch of 5 molecules: report IC50 at 72 h for each.
1. Cc1cc(C)cc(P(=O)(c2cc(C)cc(C)c2)C2Oc3ccc(C)cc3C(=O)/C2=C/NC2CCCCC2)c1 (stereo not drawn) [8c]
2. Cc1ccc2c(c1)C(=O)/C(=C/NC(c1ccccc1)c1ccccc1)C(P(=O)(c1ccccc1)c1ccccc1)O2 (stereo not drawn) [2e]
3. Cc1ccc2c(c1)C(=O)/C(=C/NCCO)C(P(=O)(c1ccccc1)c1ccccc1)O2 (stereo not drawn) [2g]
4. Cc1cc(C)cc(P(=O)(c2cc(C)cc(C)c2)C2Oc3ccc(C)cc3C(=O)/C2=C/NCc2ccccc2)c1 (stereo not drawn) [8d]
5. Cc1ccc2c(c1)C(=O)/C(=C/NCCCO)C(P(=O)(c1ccccc1)c1ccccc1)O2 (stereo not drawn) [2f]

A)
> 30 µM
> 30 µM
> 30 µM
18.5 µM
> 30 µM

====

READOUT_KIND: melting point

See these solved cases before continuing.
>>> observed("Cc1ccc2occ(C(Nc3ccccc3)P(=O)(c3ccc4ccccc4c3)c3ccc4ccccc4c3)c(=O)c2c1 (stereo not shown)")
"223 to 224 °C"
>>> observed("Cc1ccc2c(c1)C(=O)/C(=C/NCCO)C(P(=O)(c1ccccc1)c1ccccc1)O2 (stereo not shown)")
"181 to 182 °C"
>>> observed("Cc1ccc2c(c1)C(=O)/C(=C/NCc1ccccc1)C(P(=O)(c1ccccc1)c1ccccc1)O2 (stereo not shown)")
"196 to 197 °C"
>>> observed("Cc1ccc2c(c1)C(=O)/C(=C/NC(c1ccccc1)c1ccccc1)C(P(=O)(c1ccccc1)c1ccccc1)O2 (stereo not shown)")
"182 to 183 °C"
>>> observed("Cc1ccc2occ(C(Nc3ccccc3)P(=O)(c3ccccc3)c3ccccc3)c(=O)c2c1 (stereo not shown)")
"239 to 240 °C"
>>> observed("CCCCN/C=C1/C(=O)c2cc(C)ccc2OC1P(=O)(c1cc(C)cc(C)c1)c1cc(C)cc(C)c1 (stereo not shown)")
"145 to 146 °C"
>>> observed("Cc1ccc2c(c1)C(=O)/C(=C/NC1CCCCC1)C(P(=O)(c1ccccc1)c1ccccc1)O2 (stereo not shown)")
"198 to 199 °C"
>>> observed("Cc1ccc(P(=O)(c2ccc(C)cc2)C2Oc3ccc(C)cc3C(=O)/C2=C/NC2CCCCC2)cc1 (stereo not shown)")
"205 to 206 °C"
>>> observed("Cc1ccc2occ(C(O)P(=O)(c3ccccc3)c3ccccc3)c(=O)c2c1 (stereo not shown)")
"190 to 192 °C"

Now turn to the next molecule.
Q) Tell me measured melting point for Cc1cc(C)cc(P(=O)(c2cc(C)cc(C)c2)C(Nc2ccccc2)c2coc3ccc(C)cc3c2=O)c1 (stereo not shown) please.
A) 229 to 230 °C

====

Answer each item with its documented IC50 at 72 h.
ASSAY_OVERVIEW: In vitro cytotoxicity, fluorescent Resazurin assay, NIH/3T3
MEASUREMENT_CONTEXT: mouse, NIH/3T3 fibroblast cells

See these solved cases before continuing.
>>> observed("Cc1cc(C)cc(P(=O)(c2cc(C)cc(C)c2)C2Oc3ccc(C)cc3C(=O)/C2=C/NC2CCCCC2)c1 (stereo not drawn)")
"> 30 µM"
>>> observed("Cc1ccc2c(c1)C(=O)/C(=C/NCCCO)C(P(=O)(c1ccccc1)c1ccccc1)O2 (stereo not drawn)")
"> 30 µM"
>>> observed("Cc1ccc2c(c1)C(=O)/C(=C/NCCO)C(P(=O)(c1ccccc1)c1ccccc1)O2 (stereo not drawn)")
"20.7 µM"
>>> observed("Cc1ccc2c(c1)C(=O)/C(=C/NC(c1ccccc1)c1ccccc1)C(P(=O)(c1ccccc1)c1ccccc1)O2 (stereo not drawn)")
"> 30 µM"
>>> observed("CCCCN/C=C1/C(=O)c2cc(C)ccc2OC1P(=O)(c1cc(C)cc(C)c1)c1cc(C)cc(C)c1 (stereo not drawn)")
"> 30 µM"

Now turn to the next molecule.
Q) Tell me measured IC50 at 72 h for Cc1cc(C)cc(P(=O)(c2cc(C)cc(C)c2)C2Oc3ccc(C)cc3C(=O)/C2=C/NCc2ccccc2)c1 (stereo not drawn) please.
A) 14.2 µM

====

READOUT_KIND: melting point

Batch of 6 compounds: report melting point for each.
1. Cc1ccc2c(c1)C(=O)/C(=C/NC1CCCCC1)C(P(=O)(c1ccc3ccccc3c1)c1ccc3ccccc3c1)O2 (centres unmarked)
2. Cc1ccc(P(=O)(c2ccc(C)cc2)C2Oc3ccc(C)cc3C(=O)/C2=C/NCc2ccccc2)cc1 (centres unmarked)
3. Cc1ccc2occ(C(Nc3ccc(Cl)cc3)P(=O)(c3ccccc3)c3ccccc3)c(=O)c2c1 (centres unmarked)
4. Cc1ccc2c(c1)C(=O)/C(=C/Nc1ccccc1)C(P(=O)(c1ccccc1)c1ccccc1)O2 (centres unmarked)
5. CCCCNC(c1coc2ccc(C)cc2c1=O)P(=O)(c1ccccc1)c1ccccc1 (centres unmarked)
6. CCCCN/C=C1/C(=O)c2cc(C)ccc2OC1P(=O)(c1ccccc1)c1ccccc1 (centres unmarked)

A)
171 to 172 °C
198 to 199 °C
235 to 236 °C
243 to 244 °C
187 to 188 °C
192 to 193 °C

Batch of 2 compounds: report melting point for each.
1. CCCCN/C=C1/C(=O)c2cc(C)ccc2OC1P(=O)(c1ccc(C)cc1)c1ccc(C)cc1 (centres unmarked)
2. Cc1ccc(P(=O)(c2ccc(C)cc2)C(Nc2ccccc2)c2coc3ccc(C)cc3c2=O)cc1 (centres unmarked)

A)
["186 to 187 °C", "245 to 246 °C"]

====

ASSAY_OVERVIEW: In vitro cytotoxicity, fluorescent Resazurin assay, HL60
MEASUREMENT_CONTEXT: human, HL60 (HL-60) promyelocytic leukemia cells, In vitro cytotoxicity [IC50, μM] HL60, HL60 cells, 72 h incubation, 1–30 μM, mean ± standard deviation
READOUT_KIND: IC50 at 72 h

See these solved cases before continuing.
>>> observed("Cc1cc(C)cc(P(=O)(c2cc(C)cc(C)c2)C2Oc3ccc(C)cc3C(=O)/C2=C/NCc2ccccc2)c1 (stereo not shown)")
"~15 µM"
>>> observed("Cc1cc(C)cc(P(=O)(c2cc(C)cc(C)c2)C2Oc3ccc(C)cc3C(=O)/C2=C/NC2CCCCC2)c1 (stereo not shown)")
"~15 µM"
>>> observed("Cc1ccc2c(c1)C(=O)/C(=C/NCCO)C(P(=O)(c1ccccc1)c1ccccc1)O2 (stereo not shown)")
"> 30 µM"

Q) Tell me measured IC50 at 72 h for CCCCN/C=C1/C(=O)c2cc(C)ccc2OC1P(=O)(c1cc(C)cc(C)c1)c1cc(C)cc(C)c1 (stereo not shown) please.
A) ~15 µM
